- System: RXF 393 renal
- procedure summary: NCI tumour cell line growth inhibition, 48 h; in the data active = GI50 below about 0.43 µM; inactive = the rest
Classes used: True for active, False for inactive

{"columns": ["molecule", "label class"],
 "data": [
  ["O=C(O)c1cc(Cc2ccc(O)c(C(=O)O)c2)ccc1O (tested in a mixture with another compound)", "True"],
  ["CCCCCCCCCCCCCC(=O)C(C)N (stereo unspecified)", "False"],
  ["CCCCCCC#CC#Cc1cccc(=O)o1", "False"],
  ["Cc1cc(C)cc(Nc2ccc([N+](=O)[O-])c(NCCN3CCOCC3)n2)c1", "True"],
  ["C(=C\\c1nccc2c1[nH]c1ccccc12)/c1ccccc1", "False"],
  ["C1=C(c2ccccc2)C(c2ccc(OCCN3CCCCC3)cc2)Oc2ccccc21 (stereo unspecified)", "False"]
]}
